# Tested on: HL-60
# protocol_description: NCI tumour cell line growth inhibition, 48 h
Activity calls are given as the source filed them. Rule as the data show it: active = GI50 up to about 1.1 µM and inactive = higher.
Pick one and only one: active, inactive

Field: example entries. Status: answers known.
compound	class
C[N+]1(C(CO)Cc2c[nH]c3ccccc23)Cc2ccccc2C1 (centres undefined)	inactive
COc1c(C)cc2c(c1O)C1C3[C@H]4SC[C@@]5(NCCC6=C5NC5C=CC=CC65)C(=O)OCC(c5c6c(c(C)c(OC(C)=O)c54)OCO6)N3[C@@H](O)C(C2)N1C (some centres undefined)	active
c1cnc2nc3n(c2c1)CSC3	inactive

For this compound, state the assay outcome: CCOC(=O)C(=C=C=C(c1ccccc1)c1ccccc1)C(=O)OCC
inactive
